Read-out: Decorin, DCN (gene 1634)
Experiment: BSK_MyoF_Decorin: BioMAP Diversity Plus: MyoF Assay for Decorin Biomarker Activity (AID 2284265)
Details: primary human lung fibroblasts
Protocol: BSK_MyoF is a cell-based, multiplexed-readout assay that uses lung fibroblasts, […], with measurements taken at 24 hours after chemical dosing in a microplate: 96-well plate.BSK_MyoF_Decorin is an assay component measured in the BSK_MyoF assay. […] The levels of cell surface (or secreted, indicated by the prefix "s") biomarker endpoints were measured by ELISA. […] Plates were read after 6 h.
Active and inactive are the calls of the source. The calls were made as follows: active = hit-call score of the fitted dose curve at least 0.9, where 1 is the maximum; inactive = score below 0.9.
Classes to choose from: active, inactive

Query block: Hi, do you know how CC(=O)Nc1ccccc1O came out in this test?
Result block: inactive

Query block: Hi, do you know how Cc1ccc2n[nH]nc2c1 came out in this test?
Result block: inactive

Query block: Hi, do you know how CC1COc2ccccc2N1C(=O)C(Cl)Cl (centres undefined) came out in this test?
Result block: inactive

Query block: Hi, do you know how C=C[Si](OCC)(OCC)OCC came out in this test?
Result block: inactive

Query block: Hi, do you know how CCn1c2ccccc2c2cc(N)ccc21 came out in this test?
Result block: inactive

Query block: Hi, do you know how CN(CCOc1ccc(CC2SC(=O)NC2=O)cc1)c1ccccn1 (centres undefined) came out in this test?
Result block: inactive

Query block: Hi, do you know how O=[N+]([O-])c1cc(C(F)(F)F)ccc1Cl came out in this test?
Result block: inactive

Query block: Hi, do you know how N#Cc1ccc(CC(=NNC(=O)Nc2ccc(OC(F)(F)F)cc2)c2cccc(C(F)(F)F)c2)cc1 came out in this test?
Result block: inactive

Query block: Hi, do you know how O=C(O)c1cn(-c2ccc(F)cc2)c2cc(N3CCNCC3)c(F)cc2c1=O came out in this test?
Result block: inactive

Query block: Hi, do you know how CCCCCCCCCC=O came out in this test?
Result block: inactive

Query block: Hi, do you know how O=C1CCCCCCCCCCCCCCO1 came out in this test?
Result block: inactive

Query block: Hi, do you know how O=P(c1ccccc1)(c1ccccc1)c1ccccc1 came out in this test?
Result block: inactive

Query block: Hi, do you know how C=C(C)C(=O)O[C@H]1C[C@@H]2CC[C@@]1(C)C2(C)C came out in this test?
Result block: active

Query block: Hi, do you know how c1ccc2sc(SN(C3CCCCC3)C3CCCCC3)nc2c1 came out in this test?
Result block: inactive

Query block: Hi, do you know how CCCCC/C=C/C=C/C=O came out in this test?
Result block: active

Query block: Hi, do you know how CC(C)(COC(=O)c1ccccc1)COC(=O)c1ccccc1 came out in this test?
Result block: inactive

Query block: Hi, do you know how Cc1ccc(O)c(C(C)(C)C)c1 came out in this test?
Result block: inactive

Query block: Hi, do you know how CC(C)Oc1ccccc1O came out in this test?
Result block: inactive

Query block: Hi, do you know how C#C[C@]1(O)CC[C@H]2[C@@H]3CCC4=Cc5oncc5C[C@]4(C)[C@H]3CC[C@@]21C came out in this test?
Result block: inactive

Measured values drawn from PubChem BioAssay (EPA / NIEHS) for this set.
